# assay system: Indoleamine 2,3-dioxygenase 1 (Homo sapiens)
# Sequence (P14902 whole entry): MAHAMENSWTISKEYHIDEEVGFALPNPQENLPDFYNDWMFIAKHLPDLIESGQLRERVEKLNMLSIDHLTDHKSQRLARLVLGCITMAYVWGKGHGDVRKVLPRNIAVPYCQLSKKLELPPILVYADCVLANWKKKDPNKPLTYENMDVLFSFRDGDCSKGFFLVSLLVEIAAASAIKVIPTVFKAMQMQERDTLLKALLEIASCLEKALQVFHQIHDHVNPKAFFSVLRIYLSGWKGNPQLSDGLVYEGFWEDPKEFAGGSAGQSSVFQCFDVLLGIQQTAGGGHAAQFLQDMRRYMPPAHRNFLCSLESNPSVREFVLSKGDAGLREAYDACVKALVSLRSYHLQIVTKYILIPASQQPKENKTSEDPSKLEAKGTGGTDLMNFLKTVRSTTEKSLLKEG
# assay details: Inhibition of recombinant human IDO1 expressed in bacterial expression system using L-Tryptophan as substrate after 25 mins in presence of GSH and tween20 by fluorescence assay
reported metric: IC50 (nM)
Answer in nM, number only, no unit symbol.

Solved entries (count: 4):
Clc1ccc(SCNc2ccccc2Cl)cc1	1500
Cc1ccc([S+]([O-])c2ccc([N+](=O)[O-])c3nonc23)cc1 (stereo not given)	2100
Oc1nccc(SCc2ccc(Cl)cc2Cl)n1	750
COc1cc2c(cc1OC)[N+]([O-])=C(c1ccccc1)C2=O	1500

Please find the next compound below.
Recorded IC50 (compound Oc1ccccc1-c1nc2c3ccccc3c3ccccc3c2[nH]1 ): 4900
